# key: entry, value: Post-emerge phytotoxicity rating RICE (crop damage)
tested on: upland rice (Oryza sp., var. Tebonnet, RICE); experiment: Post-emerge test, crop safety; type: in vivo; settings: Rate 63 g ai/ha; rating scale 0-100 (0 no damage, 100 complete death); 14 days after application
API note: the answer field is a bare number with no unit suffix.

Guide cases for Post-emerge phytotoxicity rating RICE (crop damage), answers given:
molecule	system	test result
CCCOC(=O)C(Cl)Cc1c(OC)c(Cl)cc(F)c1-n1c(=O)cc(C(F)(F)F)n(C)c1=O (single isomer, unassigned) [14-7]	upland rice (Oryza sp., var. Tebonnet, RICE)	10
COc1c(Cl)cc(F)c(-n2c(=O)cc(C(F)(F)F)n(C)c2=O)c1CC(C)(Cl)C(=O)OCC(F)(F)C(F)F (stereo not shown)	upland rice (Oryza sp., var. Tebonnet, RICE)	70
COc1c(Cl)cc(F)c(-n2c(=O)cc(C(F)(F)F)n(C)c2=O)c1CC(Cl)C(=O)OCC(F)(F)C(F)(F)C(F)(F)F (single isomer, unassigned) [14-23]	upland rice (Oryza sp., var. Tebonnet, RICE)	0
COCCOC(=O)C(C)(Cl)Cc1c(OC)c(Cl)cc(F)c1-n1c(=O)cc(C(F)(F)F)n(C)c1=O (stereo not shown)	upland rice (Oryza sp., var. Tebonnet, RICE)	100
COc1c(Cl)cc(F)c(-n2c(=O)cc(C(F)(F)F)n(C)c2=O)c1CC(C)(Cl)C(=O)OCC(C)C (stereo not shown)	upland rice (Oryza sp., var. Tebonnet, RICE)	15

Prompt line: Which measured Post-emerge phytotoxicity rating RICE (crop damage) value corresponds to CCCCCOC(=O)C(C)(Cl)Cc1c(OC)c(Cl)cc(F)c1-n1c(=O)cc(C(F)(F)F)n(C)c1=O (stereo not shown) ?
Response line: 70

Prompt line: Which measured Post-emerge phytotoxicity rating RICE (crop damage) value corresponds to CCCOC(=O)C(Cl)Cc1c(OC)c(Cl)cc(F)c1-n1c(=O)cc(C(F)(F)F)n(C)c1=O (single isomer, unassigned) [14-6] ?
Response line: 0

The origin of these recorded values is patent US6355799B1.
